Molecular target: human c-mpl-Ba/F3 cells (Homo sapiens)
Construct: expressed in transfected cells; host or cells: Ba/F3 (murine pro-B cells) expressing human c-mpl
Sequence (P40238 26-635): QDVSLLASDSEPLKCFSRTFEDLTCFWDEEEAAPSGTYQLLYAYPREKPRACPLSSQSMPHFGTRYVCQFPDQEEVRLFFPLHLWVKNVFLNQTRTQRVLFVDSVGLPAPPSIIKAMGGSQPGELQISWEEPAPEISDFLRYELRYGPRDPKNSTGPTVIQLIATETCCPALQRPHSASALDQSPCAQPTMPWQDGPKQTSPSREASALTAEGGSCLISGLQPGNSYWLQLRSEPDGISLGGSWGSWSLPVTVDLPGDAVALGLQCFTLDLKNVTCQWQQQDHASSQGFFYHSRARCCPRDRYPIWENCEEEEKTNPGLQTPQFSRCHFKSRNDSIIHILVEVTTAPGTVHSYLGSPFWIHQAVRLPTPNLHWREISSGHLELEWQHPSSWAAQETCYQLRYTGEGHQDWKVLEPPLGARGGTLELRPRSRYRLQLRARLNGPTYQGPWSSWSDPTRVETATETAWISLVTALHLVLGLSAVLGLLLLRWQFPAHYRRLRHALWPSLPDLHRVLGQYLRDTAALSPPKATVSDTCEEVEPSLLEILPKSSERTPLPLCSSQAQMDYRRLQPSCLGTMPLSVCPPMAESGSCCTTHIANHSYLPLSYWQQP
Assay: Mouse oral administration test: human c-mpl-Ba/F3 cell growth activity of a plasma after oral administration
Format: in vivo
Details: male ICR mouse, 3 mg/kg p.o., plasma 2 h after administration, dilution rate 1%; maximum activity of each test compound = 100%
endpoint name: Cell growth activity (%)

>>> df
                               smiles_entry         endpoint_name  endpoint_result
0  C[C@H]1CCCN1Cc1sc(NC(=O)c2cnc(N3CCC(C(=O)O)CC3)c(Cl)c2)nc1-c1cc(Cl)cs1  Cell growth activity               63
1  CN(Cc1sc(NC(=O)c2cnc(N3CCC(C(=O)O)CC3)c(Cl)c2)nc1-c1cc(Cl)cs1)C1CC1  Cell growth activity               76
2  CC(C)N(C)Cc1sc(NC(=O)c2cnc(N3CCC(C(=O)O)CC3)c(Cl)c2)nc1-c1cc(Cl)cs1  Cell growth activity               63
3  C[C@H]1CCN(Cc2sc(NC(=O)c3cnc(N4CCC(C(=O)O)CC4)c(Cl)c3)nc2-c2cc(Cl)cs2)C1  Cell growth activity               59

---

target: human c-mpl-Ba/F3 cells (Homo sapiens, UniProt P40238); construct: expressed in transfected cells; host or cells: Ba/F3 (murine pro-B cells) expressing human c-mpl; experiment: Human c-mpl-Ba/F3 cell growth test; type: cell-based; conditions: maximum cell growth activity; maximum of compound A defined as 100%; read-out: Efficacy
endpoint name: Emax

In [3]: df
Out[3]:
                               smiles_entry  endpoint_name  endpoint_result
0  CCCCN(C)Cc1sc(NC(=O)c2cnc(N3CCC(CO)CC3)c(Cl)c2)nc1-c1cc(Cl)cs1           Emax             102%
1  CN(Cc1sc(NC(=O)c2cnc(N3CCC(C(=O)O)CC3)c(Cl)c2)nc1-c1cc(Cl)cs1)C1CC1           Emax             108%
2  CC(C)N(C)Cc1sc(NC(=O)c2cnc(N(C)CCCC(=O)O)c(Cl)c2)nc1-c1cc(Cl)cs1           Emax              88%
3  CN(Cc1sc(NC(=O)c2cnc(N3CCC(C(=O)O)CC3)c(Cl)c2)nc1-c1cc(Cl)cs1)C1CCC1           Emax             117%
4  C[C@@H]1CCCN1Cc1sc(NC(=O)c2cnc(N(C)CCCC(=O)O)c(Cl)c2)nc1-c1cc(Cl)cs1           Emax              88%
5  CO[C@@H](C)CN(C)Cc1sc(NC(=O)c2cnc(N3CCC(C(=O)O)CC3)c(Cl)c2)nc1-c1cc(Cl)cs1           Emax              87%
6  C[C@H]1CCCN1Cc1sc(NC(=O)c2cnc(N3CCC(C(=O)O)CC3)c(Cl)c2)nc1-c1cc(Cl)cs1           Emax             112%
